This collection of values is drawn from PubChem BioAssay AID1159606.

Test: inhibitors of TWEAK-Fn14 signaling, primary screen, luciferase reporter cells, uHTS (AID 1159606)
Conditions: TWEAK-stimulated Fn14 reporter cells, luciferase luminescence, 8 h; at 10 µM; stronger effect = higher value
Hit rate of the full screen: of about 360,000 compounds, about 7,300 (2%) were called active. Shown is part of a subset that was picked to be rich in actives.
Tick T if inhibition is 20% or greater. Tick F if inhibition is less than 20%.

inhibition >= 20% for "COc1cccc(-c2cc3nc(NCCOc4ccccc4Cl)n(C)c(=O)c3s2)c1" ?
F

inhibition >= 20% for CCCCNC(=O)OC1CC2CC1[C@H]1CCCCN1C2=O (stereo not given in full) ?
F

inhibition >= 20% for Cc1c(Cl)c([N+](=O)[O-])nn1CC(=O)NCC1CCCO1 (stereo not given) ?
F

inhibition >= 20% for "Cc1c(Cl)c([N+](=O)[O-])nn1CC(=O)NCCCN1CCOCC1" ?
T

inhibition >= 20% for "CC(=O)c1c(C)n([O-])c2ccccc2[n+]1=O" ?
F

inhibition >= 20% for CC1(C(=O)NS(=O)(=O)c2ccc(C#N)cc2)CCN1C(=O)c1ccc(C2CCCCC2)cc1 (stereo not given) ?
T

inhibition >= 20% for COc1cccc(CC2(CO)CCCN(CC3=Cc4cc(OC)ccc4OC3)C2)c1 (stereo not given) ?
T

inhibition >= 20% for CC1(NC(=O)CCS(=O)(=O)c2ccc(Cl)cc2)CCS(=O)(=O)C1 (stereo not given) ?
F

inhibition >= 20% for "Cc1ccc(S(=O)(=O)N2CCC(=O)N([C@H](COCc3ccccc3)C(C)C)CC2)cc1" ?
F

inhibition >= 20% for "CCCCNC(=O)Cn1nc(C)c(S(=O)(=O)N2CCOCC2)c1C" ?
F

====

Assay: inhibitors of TWEAK-Fn14 signaling, primary screen, luciferase reporter cells, uHTS (AID 1159606)
Details: TWEAK-stimulated Fn14 reporter cells, luciferase luminescence, 8 h; at 10 µM; stronger effect = higher value
The campaign covered roughly 360,000 compounds. About 7,300 (2%) were called active. Only a selection was taken, and actives are over-represented in it overall.
READOUT_TYPE: inhibition (%)
A number alone suffices; assume %.

In one line, give reported inhibition of the entry "N#Cc1ccc(C(=O)Nc2nc(-c3cccs3)c(C(=O)C(F)(F)F)s2)cc1" .
58.4

In one line, give reported inhibition of the entry "O=C(/C(=C/c1cccc(Cl)c1)c1nc2ccccc2[nH]1)c1ccccc1" .
72.2

In one line, give reported inhibition of the entry "CS/C(=C\C(=O)c1ccco1)Nc1ccccc1Cl" .
-3.35

In one line, give reported inhibition of the entry "O=c1c2cc(Br)ccc2nc(-c2cccc(Cl)c2)n1O" .
12.1

In one line, give reported inhibition of the entry "CC(=O)c1cnn(-c2cc(Oc3ccc(F)cc3)ncn2)c1C" .
8.07

Here's the next entry for you.
In one line, give reported inhibition of the entry "N#Cc1c(-c2cccs2)nc(SCC(=O)c2ccc(Br)cc2)[nH]c1=O" .
-12.4

====

Experiment: inhibitors of TWEAK-Fn14 signaling, primary screen, luciferase reporter cells, uHTS (AID 1159606)
Conditions: TWEAK-stimulated Fn14 reporter cells, luciferase luminescence, 8 h; at 10 µM; stronger effect = higher value
The campaign covered roughly 360,000 compounds. About 7,300 (2%) were called active. This excerpt belongs to a sample that is enriched for actives.
READOUT_TYPE: inhibition (%)
A number alone suffices; assume %.

// known answers, use as guide
In one line, give reported inhibition of the entry "Cc1cccc(NC(=O)Cn2cc(C(=O)c3ccco3)c3ccccc32)c1" .
-6.45

In one line, give reported inhibition of the entry "CC(C)C[C@H](CO)Nc1nc(N(C)c2cccc(Cl)c2)c2ncn(C(C)C)c2n1" .
-0.23

In one line, give reported inhibition of the entry "CC(C)n1cnc2c(Nc3cccc(Cl)c3)nc(N(CCO)CCCO)nc21" .
54.7

In one line, give reported inhibition of the entry CSCCC(NC(=O)C1CCC(C)CC1)C(=O)NCc1ccco1 (stereo not given) .
-2.99

In one line, give reported inhibition of the entry "CCCCNC(=O)C[C@@H]1C[C@@]2(C(=O)OCC)CCC=C2N(Cc2ccco2)C1=O" .
11

In one line, give reported inhibition of the entry "Cc1cccc(CS(=O)(=O)c2ncc(Cl)c(C(=O)Nc3ccc(F)cc3)n2)c1" .
77

Continuing:
In one line, give reported inhibition of the entry "Cc1ccc(C)c(Cn2nnc3c(=O)[nH]c(C(=O)Nc4ccc(F)cc4)nc32)c1" .
-5.18

In one line, give reported inhibition of the entry "Cc1cccc(NC(=O)c2nc(S(=O)(=O)Cc3ccccc3)ncc2Cl)c1" .
75.7

In one line, give reported inhibition of the entry "CCOc1ccc(S(=O)(=O)Nc2cccc(C(=O)NCC3(N4CCCCC4)CCCCC3)c2)cc1" .
-1.13

In one line, give reported inhibition of the entry Cc1cccc(NC(=O)CCN2CC(C)CC(C)C2)c1 (stereo not given) .
-9.11
